# TARGET_ENTITY: glutathione S-transferase (GST)-linked full-length human Syk protein (Homo sapiens, UniProt P43405)
Measured IC50 of individual entries

Past entries and their recorded results:
smiles_str=COc1ccc([C@@H](Nc2nc(Nc3ccc4ncccc4c3)c(C(N)=O)cc2F)[C@H](C)N)cc1 parameter_measured=IC50 endpoint_value="50 to 100 nM"
smiles_str=CCC[C@@H](Nc1nc(Nc2cncc3c2cnn3CC(F)F)c(C(N)=O)cc1F)[C@H](C)N parameter_measured=IC50 endpoint_value="< 10 nM"
smiles_str=CC[C@H](N)[C@H](Nc1nc(Nc2ccc3c(c2)c(C)nn3C)c(C(N)=O)cc1F)C1CC1 parameter_measured=IC50 endpoint_value="< 10 nM"
smiles_str=COc1cc(Nc2nc(N[C@H](C3CCC3)[C@H](C)N)c(F)cc2C(N)=O)ccn1 parameter_measured=IC50 endpoint_value="< 10 nM"
smiles_str=COc1cc(Nc2nc(N[C@H](c3ccc(F)cc3)[C@H](C)N)c(F)cc2C(N)=O)cc(OC)c1 parameter_measured=IC50 endpoint_value="< 10 nM"

Lab book: IC50 of "CCn1ncc2c(Nc3nc(N[C@H](C4CCC4)[C@H](C)N)c(F)cc3C(N)=O)cccc21" noted as < 10 nM

Lab book: IC50 of "CC[C@@H](Nc1nc(Nc2ccc3c(c2)c(C)nn3CCOC)c(C(N)=O)cc1F)[C@H](C)N" noted as < 10 nM

Lab book: IC50 of "CC[C@@H](Nc1nc(Nc2cnc(NC)c(F)c2)c(C(N)=O)cc1F)[C@H](C)N" noted as 10 to 50 nM

Lab book: IC50 of "CC[C@H](N)[C@@H](C)Nc1nc(Nc2ccc3c(c2)c(OC(F)F)nn3CCOC)c(C(N)=O)cc1F" noted as 10 to 50 nM

Lab book: IC50 of "CCn1ncc2ccc(Nc3nc(N[C@H](CC(C)C)[C@H](C)N)c(F)cc3C(N)=O)cc21" noted as < 10 nM

* * *

# TARGET_ENTITY: glutathione S-transferase (GST)-linked full-length human Syk protein (Homo sapiens, UniProt P43405)
PARAMETER_MEASURED: IC50

Lab book: IC50 of Cc1ncc(Nc2nc(N[C@@H]3CC[C@@H](O)C[C@@H]3N)c(F)cc2C(N)=O)cc1-n1nccn1 (racemic) noted as 0.01 to 0.05 µM

* * *

Measured IC50 of individual entries
# TARGET_ENTITY: glutathione S-transferase (GST)-linked full-length human Syk protein (Homo sapiens, UniProt P43405)

Past entries and their recorded results:
smiles_str=CCOc1ncc(Nc2nc(N[C@H](C3CCC3)[C@H](C)N)c(F)cc2C(N)=O)cc1-n1ccnn1 endpoint_value="10 to 50 nM"
smiles_str=CC[C@@H](Nc1nc(Nc2cc(Cl)c3c(cnn3C)c2)c(C(N)=O)cc1F)[C@H](C)N endpoint_value="< 10 nM"
smiles_str=CCC[C@@H](Nc1nc(Nc2ccc3c(c2)c(C)nn3CCOC)c(C(N)=O)cc1F)[C@H](C)N endpoint_value="< 10 nM"

Lab book: IC50 of "CCC[C@@H](Nc1nc(Nc2cnc(N3CCOCC3)c(F)c2)c(C(N)=O)cc1F)[C@H](C)N" noted as 10 to 50 nM

Lab book: IC50 of "NC(=O)c1cc(F)c(N[C@@H]2CCCC[C@@H]2N)nc1Nc1ccc(F)cc1" noted as < 10 nM

* * *

Lab note: pIC50 readings collected with glutathione S-transferase (GST)-linked full-length human Syk protein (Homo sapiens) for the following compounds.
pIC50: −log10 of the molar value.

Item NC(=O)c1cc(F)c(N[C@@H]2CCCC[C@@H]2N)nc1Nc1cccc(-n2nccn2)c1 [Example 2-437] was tested on glutathione S-transferase (GST)-linked full-length human Syk protein (Homo sapiens); the reported pIC50 is > 8.00

Item CCCC[C@@H](Nc1nc(Nc2cnc3c(c2)c(OC)nn3C)c(C(N)=O)cc1F)[C@H](C)N [Example 2-254] was tested on glutathione S-transferase (GST)-linked full-length human Syk protein (Homo sapiens); the reported pIC50 is > 8.00

Item CCn1ncc2c(Nc3nc(N[C@H](COC)[C@H](C)N)c(F)cc3C(N)=O)cncc21 [Example 2-323] was tested on glutathione S-transferase (GST)-linked full-length human Syk protein (Homo sapiens); the reported pIC50 is 7.30 to 8.00

Item COCCn1ncc2c(Nc3nc(N[C@H](COC)[C@H](C)N)c(F)cc3C(N)=O)cccc21 [Example 2-309] was tested on glutathione S-transferase (GST)-linked full-length human Syk protein (Homo sapiens); the reported pIC50 is 7.30 to 8.00

* * *

pIC50: −log10 of the molar value.
Lab note: pIC50 readings collected with glutathione S-transferase (GST)-linked full-length human Syk protein (Homo sapiens) for the following compounds.

smiles_str=CC(C)Oc1cccc(Nc2nc(N[C@@H]3CCCC[C@@H]3N)c(F)cc2C(N)=O)c1 endpoint_value="> 8.00"
smiles_str=NC(=O)c1cc(F)c(N[C@@H]2CCOC[C@@H]2N)nc1Nc1ccnc(N2CCOCC2)c1F endpoint_value="7.30 to 8.00"
smiles_str=Cc1ccc(Nc2nc(N[C@@H]3CCCC[C@@H]3N)c(F)cc2C(N)=O)cc1C endpoint_value="> 8.00"
smiles_str=COCCOc1ncc(Nc2nc(N[C@H](C3CCC3)[C@H](C)N)c(F)cc2C(N)=O)cc1F endpoint_value="7.30 to 8.00"
smiles_str=CCn1ncc2cc(Nc3nc(N[C@H](c4cccs4)[C@H](C)N)c(F)cc3C(N)=O)ccc21 endpoint_value="> 8.00"

Item "CC[C@H](N)[C@@H](CC)Nc1nc(Nc2cnc3c(c2)c(C)nn3C)c(C(N)=O)cc1F" was tested on glutathione S-transferase (GST)-linked full-length human Syk protein (Homo sapiens); the reported pIC50 is 7.00 to 7.30

Item "NC(=O)c1cc(F)c(N[C@@H]2CCOC[C@@H]2N)nc1Nc1cncc2c1cnn2CC(F)F" was tested on glutathione S-transferase (GST)-linked full-length human Syk protein (Homo sapiens); the reported pIC50 is > 8.00

Item "Cc1ncc(Nc2nc(N[C@@H](CN)Cc3ccccc3)c(F)cc2C(N)=O)cc1-n1nccn1" was tested on glutathione S-transferase (GST)-linked full-length human Syk protein (Homo sapiens); the reported pIC50 is 7.00 to 7.30

Item "CCC[C@@H](Nc1nc(Nc2cnc(OCCOC)c(-n3nccn3)c2)c(C(N)=O)cc1F)[C@H](C)N" was tested on glutathione S-transferase (GST)-linked full-length human Syk protein (Homo sapiens); the reported pIC50 is 7.30 to 8.00

Item "CC[C@H](N)[C@@H](CC)Nc1nc(Nc2cnc3c(c2)c(OC)nn3C)c(C(N)=O)cc1F" was tested on glutathione S-transferase (GST)-linked full-length human Syk protein (Homo sapiens); the reported pIC50 is 7.30 to 8.00

Item "CCOC[C@@H](Nc1nc(Nc2ccc3c(cnn3C)c2)c(C(N)=O)cc1F)[C@H](C)N" was tested on glutathione S-transferase (GST)-linked full-length human Syk protein (Homo sapiens); the reported pIC50 is 7.30 to 8.00

// provenance: patent US9051310B2
